The following compounds are listed with their measured log10(IC50) values.
System: BXPC-3
Experiment: Cytotoxicity against human BxPC3 cells assessed as reduction in cell viability incubated for 72 hrs by MTT assay
Assay type: functional, cell-based
Conditions: BXPC-3, 72 h
testReadout: log10(IC50) (log10 of the value in nM)

CC1(C)CC(Cl)CN(Cc2ccccc2)C1 (racemic) | 0.78
CCCCN1CCCC(Cl)C1 (racemic) | 1.76
O=C(O)CCCc1ccc(N(CCCl)CCCl)cc1 [CHLORAMBUCIL] | 4.88
CCCCN1CC(Cl)CC(C)(C)C1 (racemic) | 1.38
CCCCN1CCC[C@@H](Cl)C1 | 2.44
CCCCN1CCC[C@H](Cl)C1 | 0.85

---

Test: Permeability across PVDF membrane in PBS buffer of pH 7.4 at 500 uM incubated for 1 hr by UPLC-MS based PAMPA assay
Format: ADME
Details: pH 7.4, 1 h
testReadout: permeability

CC1(C)CC(Cl)CN(Cc2ccccc2)C1 (racemic) | Impermeable
CCCCN1CCC[C@@H](Cl)C1 | Permeable
CCCCN1CC(Cl)CC(C)(C)C1 (racemic) | Impermeable
CCCCN1CCC[C@H](Cl)C1 | Permeable

---

Tested on: DNA
Assay: Induction of Escherichia coli pBR322 DNA cleavage in BPE buffer at 5 to 50 uM incubated for 18 hrs by electrophoresis method
Type: nucleic-acid assay
Active and inactive are the calls of the source. The calls are words filed in the database; no cut-off is given here.
testReadout: Activity

CCCCN1CCCC(Cl)C1 (racemic) | Active
CCCCN1CCC[C@@H](Cl)C1 | Active
CCCCN1CC(Cl)CC(C)(C)C1 (racemic) | Active
CCCCN1CCC[C@H](Cl)C1 | Active
O=C(O)CCCc1ccc(N(CCCl)CCCl)cc1 | Active
CC1(C)CC(Cl)CN(Cc2ccccc2)C1 (racemic) | Active
